- Test system: L1210
- measurement-description: Antitumor activity against mouse L1210 cells allografted in BDF1 mouse assessed as increase of host life span at 200 mg/kg, po qd for 5 days
- Format: functional
Activity for assorted compounds
metric-name: Activity (%)

structure: CCCC(=O)OCCCCCCCCCCC(=O)OC[C@H]1O[C@@H]2[C@H](Oc3nc(=N)ccn32)[C@@H]1OC(=O)CCCCCCCCCCOC(=O)CCC.Cl
metric-name: Activity
unit-text: %
result-value: 33.3
//
structure: CC(=O)O[C@H]1[C@H]2Oc3nc(=N)ccn3[C@@H]2O[C@@H]1COP(=O)(O)O
metric-name: Activity
unit-text: %
result-value: 46.9
//
structure: CC(C)(C)C(=O)O[C@H]1[C@H]2Oc3nc(=N)ccn3[C@@H]2O[C@@H]1COC(=O)CCCCCCC(=O)OC[C@H]1O[C@@H]2[C@H](Oc3nc(=N)ccn32)[C@@H]1OC(=O)C(C)(C)C.Cl
metric-name: Activity
unit-text: %
result-value: 41
//
structure: CCCCC(=O)O[C@H]1[C@H]2Oc3nc(=N)ccn3[C@@H]2O[C@@H]1COP(=O)(O)O
metric-name: Activity
unit-text: %
result-value: 45.6
//
structure: Cl.N=c1ccn2c(n1)O[C@@H]1[C@H](OC(=O)c3ccc(F)cc3)[C@@H](COC(=O)c3ccc(F)cc3)O[C@H]12
metric-name: Activity
unit-text: %
result-value: 38.5
//
structure: Cl.N=c1ccn2c(n1)O[C@@H]1[C@H](OC(=O)c3cccc(Cl)c3)[C@@H](COC(=O)c3cccc(Cl)c3)O[C@H]12
metric-name: Activity
unit-text: %
result-value: 38.5
